Target: canine TRPM8 (Canis lupus familiaris, UniProt Q1A7N1)
Sequence (Q1A7N1 1-1104): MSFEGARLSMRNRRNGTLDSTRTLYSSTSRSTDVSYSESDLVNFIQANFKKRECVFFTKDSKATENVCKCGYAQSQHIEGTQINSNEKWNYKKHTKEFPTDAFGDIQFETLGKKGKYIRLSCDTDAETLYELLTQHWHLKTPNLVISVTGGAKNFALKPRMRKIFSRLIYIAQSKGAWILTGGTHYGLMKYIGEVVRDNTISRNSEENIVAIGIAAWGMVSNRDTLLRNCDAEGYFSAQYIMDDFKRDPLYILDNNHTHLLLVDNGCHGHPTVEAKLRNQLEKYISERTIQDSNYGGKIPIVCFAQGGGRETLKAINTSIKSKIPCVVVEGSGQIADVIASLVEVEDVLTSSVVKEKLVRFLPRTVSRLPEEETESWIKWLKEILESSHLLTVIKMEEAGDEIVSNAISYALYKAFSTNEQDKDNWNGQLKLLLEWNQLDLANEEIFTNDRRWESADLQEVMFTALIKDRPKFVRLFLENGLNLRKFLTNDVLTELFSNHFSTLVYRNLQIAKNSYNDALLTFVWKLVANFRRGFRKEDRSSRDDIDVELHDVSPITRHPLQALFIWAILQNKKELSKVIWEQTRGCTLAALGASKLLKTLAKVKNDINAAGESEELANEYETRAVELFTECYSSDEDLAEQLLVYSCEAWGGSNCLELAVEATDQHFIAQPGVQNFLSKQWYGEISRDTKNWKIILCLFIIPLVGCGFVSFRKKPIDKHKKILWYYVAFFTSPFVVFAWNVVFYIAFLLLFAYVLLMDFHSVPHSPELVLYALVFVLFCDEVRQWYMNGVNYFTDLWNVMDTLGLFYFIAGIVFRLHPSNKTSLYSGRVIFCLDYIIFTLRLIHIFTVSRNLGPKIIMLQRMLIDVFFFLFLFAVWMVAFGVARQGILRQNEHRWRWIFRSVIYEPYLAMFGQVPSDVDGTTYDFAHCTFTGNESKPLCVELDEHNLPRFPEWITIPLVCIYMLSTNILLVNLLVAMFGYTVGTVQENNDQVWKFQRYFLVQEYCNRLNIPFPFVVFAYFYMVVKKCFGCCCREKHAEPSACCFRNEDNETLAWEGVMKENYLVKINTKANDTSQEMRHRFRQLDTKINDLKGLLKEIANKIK
Assay: In vitro canine TRPM8 functional assay (Ca2+-sensitive fluorescent dye, icilin activation)
Assay type: cell-based
Settings: 0.2 μM compound; HEK293 cells stably expressing canine TRPM8; icilin-induced Ca2+ response
Structures can show the parent of a compound that is named as a salt.
test-readout: inhibition at 0.2 µM (%)
// units = %; emit number, no label

Please review the entries below; each comes with its answer.
Cn1nc(C(C)(C)C)c(C#N)c1-c1nc2cc(-c3ccccc3C(F)(F)F)nc(OCC(=O)O)c2[nH]1 [Compound 86] :: 49
Cn1nc(C(C)(C)C)c(Cl)c1-c1nc2nc(-c3ccccc3C(F)(F)F)cnc2[nH]1 [Compound 95] :: 100
Cn1nc(C(C)(C)C)cc1-c1nc2cc(-c3ccccc3C(F)(F)F)nc(Cl)c2[nH]1 [Compound 74, hydrochloride] :: 93
CC(C)(C)c1cc(-c2nc3cc(-c4ccccc4C(F)(F)F)nc(Cl)c3[nH]2)on1 [Compound 73, hydrochloride] :: 100
COc1cc(-c2ccccc2C(F)(F)F)nc2nc(-c3onc(C(C)(C)C)c3C#N)[nH]c12 [Compound 70] :: 36
Cn1nc(C(C)(C)C)c(Cl)c1-c1nc2cc(-c3ccccc3C(F)(F)F)nc(C#N)c2[nH]1 [compound 60] :: 99
Cn1nc(C(C)(C)C)c(Cl)c1-c1nc2cc(-c3ccccc3C(F)(F)F)nc(OCC(=O)O)c2[nH]1 [Compound 88] :: 36
Cc1nc(-c2ccccc2C(F)(F)F)nc2nc(-c3cc(C(C)(C)C)nn3C)[nH]c12 [Compound 35, trifluoroacetic acid salt] :: 67
CC(C)(C)c1cc(-c2nc3nc(-c4ccccc4C(F)(F)F)cc(Cl)c3[nH]2)on1 [Compound 7] :: 99
Cn1nc(C(C)(C)C)c(C#N)c1-c1nc2cc(-c3ccccc3C(F)(F)F)nc(OCCO)c2[nH]1 [Compound 84] :: 100

The compound COc1cc(-c2ccccc2C(F)(F)F)nc2nc(-c3cc(C(C)(C)C)nn3C)[nH]c12 [Compound 81, hydrochloride] , when measured on canine TRPM8 (Canis lupus familiaris, UniProt Q1A7N1), yielded inhibition at 0.2 µM of 67

The compound Cn1nc(C(C)(C)C)c(C#N)c1-c1nc2cc(-c3ccccc3)ncc2[nH]1 [Compound 47, hydrochloride] , when measured on canine TRPM8 (Canis lupus familiaris, UniProt Q1A7N1), yielded inhibition at 0.2 µM of 56

---

Target: canine TRPM8 (Canis lupus familiaris, UniProt Q1A7N1)
Experiment: In vitro canine TRPM8 functional assay (Ca2+-sensitive fluorescent dye, icilin activation)
Format: cell-based
Conditions: 0.2 μM compound; HEK293 cells stably expressing canine TRPM8; icilin-induced Ca2+ response
Structures can show the parent of a compound that is named as a salt.
Listed here are compounds together with their documented inhibition at 0.2 µM.
// units = %; emit number, no label

COc1nc(-c2ccccc2Cl)cc2nc(-c3cnn(C(C)(C)C)c3)[nH]c12 [Compound 102, sodium salt] :: 70
Cn1nc(C(C)(C)C)cc1-c1nc2nc(-c3ccccc3F)ccc2[nH]1 [Compound 36] :: 26
Cn1nc(C(C)(C)C)c(C#N)c1-c1nc2cc(-c3ccccc3C(F)(F)F)ncc2[nH]1 [Compound 45, hydrochloride] :: 98

Now look at this one.
inhibition at 0.2 µM reported for this compound Cn1nc(C(C)(C)C)c(Cl)c1-c1nc2nc(-c3ccccc3F)ccc2[nH]1 [Compound 33, hydrochloride] : 98

---

Molecular target: canine TRPM8 (Canis lupus familiaris, UniProt Q1A7N1)
Test: In vitro canine TRPM8 functional assay (Ca2+-sensitive fluorescent dye, icilin activation)
Format: cell-based
Settings: 0.2 μM compound; HEK293 cells stably expressing canine TRPM8; icilin-induced Ca2+ response
Where a name gives a salt, the structure may show the parent alone.
test-readout: inhibition at 0.2 µM (%)
// units = %; emit number, no label

The molecule Cn1nc(C(C)(C)C)c(Cl)c1-c1nc2cc(-c3ccccc3F)nc(OCC(F)(F)F)c2[nH]1 [Compound 91, sodium salt] , when measured on canine TRPM8 (Canis lupus familiaris, UniProt Q1A7N1), yielded inhibition at 0.2 µM of 99

The molecule Cn1nc(C(C)(C)C)c(Cl)c1-c1nc2cc(-c3ccccc3Cl)nc(OCC(F)(F)F)c2[nH]1 [Compound 89, sodium salt] , when measured on canine TRPM8 (Canis lupus familiaris, UniProt Q1A7N1), yielded inhibition at 0.2 µM of 100

The molecule CC(C)(C)c1cc(-c2nc3nc(-c4ccccc4C(F)(F)F)cc(C(F)(F)F)c3[nH]2)on1 , when measured on canine TRPM8 (Canis lupus familiaris, UniProt Q1A7N1), yielded inhibition at 0.2 µM of 101

The molecule COCCOc1nc(-c2ccccc2C(F)(F)F)cc2nc(-c3c(C#N)c(C(C)(C)C)nn3C)[nH]c12 , when measured on canine TRPM8 (Canis lupus familiaris, UniProt Q1A7N1), yielded inhibition at 0.2 µM of 99

The molecule Cn1nc(C(C)(C)C)cc1-c1nc2nc(-c3ccccc3C(F)(F)F)cc(Cl)c2[nH]1 [Compound 6, sodium salt] , when measured on canine TRPM8 (Canis lupus familiaris, UniProt Q1A7N1), yielded inhibition at 0.2 µM of 65

The molecule COc1nc(-c2ccccc2Cl)cc2nc(-c3cnn(C(C)(C)C)c3C)[nH]c12 [Compound 100, sodium salt] , when measured on canine TRPM8 (Canis lupus familiaris, UniProt Q1A7N1), yielded inhibition at 0.2 µM of 94

The molecule COc1nc(-c2ccccc2C(F)(F)F)cc2nc(-c3c(Cl)c(C(C)(C)C)nn3C)[nH]c12 [Compound 9, hydrochloride] , when measured on canine TRPM8 (Canis lupus familiaris, UniProt Q1A7N1), yielded inhibition at 0.2 µM of 100

The molecule Cn1nc(C(C)(C)C)c(Cl)c1-c1nc2nc(-c3ccccc3C(F)(F)F)ccc2[nH]1 [Compound 32, hydrochloride] , when measured on canine TRPM8 (Canis lupus familiaris, UniProt Q1A7N1), yielded inhibition at 0.2 µM of 100

The molecule CC(C)(C)c1cc(-c2nc3nc(-c4ccccc4F)ccc3[nH]2)on1 , when measured on canine TRPM8 (Canis lupus familiaris, UniProt Q1A7N1), yielded inhibition at 0.2 µM of 87

The molecule CC(C)Oc1nc(-c2ccccc2C(F)(F)F)cc2nc(-c3c(Cl)c(C(C)(C)C)nn3C)[nH]c12 , when measured on canine TRPM8 (Canis lupus familiaris, UniProt Q1A7N1), yielded inhibition at 0.2 µM of 99

---

Biological target: canine TRPM8 (Canis lupus familiaris)
Test: In vitro canine TRPM8 functional assay (Ca2+-sensitive fluorescent dye, icilin activation)
Type: cell-based
Details: 0.2 μM compound; HEK293 cells stably expressing canine TRPM8; icilin-induced Ca2+ response
Where a name gives a salt, the structure may show the parent alone.
test-readout: inhibition at 0.2 µM (%)
// units = %; emit number, no label

Please review the entries below; each comes with its answer.
COc1nc(-c2ccccc2Cl)cc2nc(-c3cc(C(C)(C)C)nn3C)[nH]c12 [Compound 12] :: 101
Cn1nc(C(C)(C)C)cc1-c1nc2cc(-c3ccccc3Cl)ncc2[nH]1 [Compound 41, hydrochloride] :: 94
Cn1nc(C(C)(C)C)c(C#N)c1-c1nc2cc(-c3ccccc3C(F)(F)F)nc(OCC(F)(F)F)c2[nH]1 [Compound 15] :: 100
Cn1nc(C(C)(C)C)c(C#N)c1-c1nc2cc(-c3ccccc3Cl)nc(OCC(=O)O)c2[nH]1 [Compound 85] :: 32
COCCOc1cc(-c2ccccc2C(F)(F)F)nc2nc(-c3cc(C(C)(C)C)nn3C)[nH]c12 [Compound 112] :: 98
Cn1nc(C(C)(C)C)c(C#N)c1-c1nc2cc(-c3ccccc3C(F)(F)F)nc(N3CCCCC3)c2[nH]1 [Compound 22] :: 99

inhibition at 0.2 µM reported for this compound Cn1nc2c(c1-c1nc3c(Cl)nc(-c4ccccc4C(F)(F)F)cc3[nH]1)CCC21CCCCC1 [Compound 72, hydrochloride] : 95

---

Listed here are compounds together with their documented inhibition at 0.2 µM.
Target: UniProt:Q1A7N1
Assay: In vitro canine TRPM8 functional assay (Ca2+-sensitive fluorescent dye, icilin activation)
Assay type: cell-based
Settings: 0.2 μM compound; HEK293 cells stably expressing canine TRPM8; icilin-induced Ca2+ response
Where a name gives a salt, the structure may show the parent alone.
// units = %; emit number, no label

Please review the entries below; each comes with its answer.
Cn1nc(C(C)(C)C)c(Cl)c1-c1nc2cc(-c3ccccc3C(F)(F)F)nc(Cl)c2[nH]1 [Compound 71, Hydrochloride] :: 100
CC(C)Oc1nc(-c2ccccc2OC(F)(F)F)cc2nc(-c3c(Cl)c(C(C)(C)C)nn3C)[nH]c12 [Compound 93, sodium salt] :: 99
Cn1nc(C(C)(C)C)cc1-c1nc2nc(-c3ccccc3C(F)(F)F)ccc2[nH]1 [Compound 34] :: 89
Cn1nc(C(C)(C)C)c(C#N)c1-c1nc2cc(-c3ccccc3Cl)nc(OCCO)c2[nH]1 [Compound 83] :: 99
CC(C)(C)c1cc(-c2nc3nc(-c4ccccc4OC(F)(F)F)ccc3[nH]2)on1 [Compound 29] :: 99
COc1c(C(C)(C)C)nn(C)c1-c1nc2cc(-c3ccccc3C(F)(F)F)nc(OC)c2[nH]1 [Compound 79] :: 101

inhibition at 0.2 µM reported for this compound CN(C)CCOc1nc(-c2ccccc2C(F)(F)F)cc2nc(-c3c(Cl)c(C(C)(C)C)nn3C)[nH]c12 [Compound 53] : 99

inhibition at 0.2 µM reported for this compound Cn1nc(C(C)(C)C)cc1-c1nc2nc(-c3ccccc3Cl)ccc2[nH]1 [Compound 27] : 73

inhibition at 0.2 µM reported for this compound Cn1nc(C(C)(C)C)c(Cl)c1-c1nc2cc(-c3ccccc3Cl)nc(OCCO)c2[nH]1 [Compound 58] : 101
